Origin of the recorded values: patent US20100298286A1

- study-target: PI3Kbeta (Homo sapiens)
- Construct: p85α iSH2 domain (fusion partner); His tag (C)
- Sequence (P42338 with tags, fused parts or gaps limits assumed): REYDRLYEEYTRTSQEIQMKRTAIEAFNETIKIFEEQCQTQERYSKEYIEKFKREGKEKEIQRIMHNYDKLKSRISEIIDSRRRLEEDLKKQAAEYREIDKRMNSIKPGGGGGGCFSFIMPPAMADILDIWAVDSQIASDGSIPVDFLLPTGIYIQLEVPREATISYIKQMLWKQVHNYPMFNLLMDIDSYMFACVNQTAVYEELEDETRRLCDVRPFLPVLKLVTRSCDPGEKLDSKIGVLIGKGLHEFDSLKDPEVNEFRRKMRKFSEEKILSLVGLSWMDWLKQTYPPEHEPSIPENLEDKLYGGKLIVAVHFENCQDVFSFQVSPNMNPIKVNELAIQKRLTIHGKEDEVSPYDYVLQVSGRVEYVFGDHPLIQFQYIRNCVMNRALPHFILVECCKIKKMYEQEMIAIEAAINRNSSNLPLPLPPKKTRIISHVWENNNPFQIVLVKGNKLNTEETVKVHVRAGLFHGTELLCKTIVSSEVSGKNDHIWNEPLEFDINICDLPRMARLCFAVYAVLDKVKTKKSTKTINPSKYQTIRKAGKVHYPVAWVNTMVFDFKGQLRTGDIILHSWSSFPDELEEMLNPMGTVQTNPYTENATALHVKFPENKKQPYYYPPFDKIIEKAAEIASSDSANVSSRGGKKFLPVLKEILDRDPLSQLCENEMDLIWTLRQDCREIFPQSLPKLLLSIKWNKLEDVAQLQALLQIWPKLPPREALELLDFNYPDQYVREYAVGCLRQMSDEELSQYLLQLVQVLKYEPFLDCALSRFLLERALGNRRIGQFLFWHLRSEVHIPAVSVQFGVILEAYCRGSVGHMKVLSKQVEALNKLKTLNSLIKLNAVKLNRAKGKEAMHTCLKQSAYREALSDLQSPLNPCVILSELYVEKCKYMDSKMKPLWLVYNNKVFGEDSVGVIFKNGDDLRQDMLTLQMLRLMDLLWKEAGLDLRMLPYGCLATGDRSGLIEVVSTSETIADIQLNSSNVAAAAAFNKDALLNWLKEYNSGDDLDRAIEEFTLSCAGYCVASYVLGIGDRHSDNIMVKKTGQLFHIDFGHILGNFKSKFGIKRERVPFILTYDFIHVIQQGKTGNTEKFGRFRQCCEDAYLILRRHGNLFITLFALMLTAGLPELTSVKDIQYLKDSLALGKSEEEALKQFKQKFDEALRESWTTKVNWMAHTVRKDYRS
- protocol-details: PI3K KinaseGlo assay, PI3Kbeta
- assay-setup: 1 μM ATP, 25 nM enzyme, 30 mins
pIC50: −log10 of the molar value.
parameter-measured: pIC50

[
  {
    "molecule": "Cc1nc(NC(=O)N2CCC[C@H]2C(N)=O)sc1-c1csc(N2CC3CCC(CC3)C2)n1",
    "parameter-measured": "pIC50",
    "value-observed": 5.07
  },
  {
    "molecule": "Cc1nc(NC(=O)N2CCC[C@@]2(C)C(N)=O)sc1-c1csc(CC2CC2)n1",
    "parameter-measured": "pIC50",
    "value-observed": 6.05
  },
  {
    "molecule": "Cc1nc(NC(=O)N2CCC2C(N)=O)sc1-c1csc(C(C)(C)C)n1 (stereo not drawn)",
    "parameter-measured": "pIC50",
    "value-observed": 5.16
  }
]

----------
- study-target: PI3Kgamma (Homo sapiens, UniProt P48736, Q459R)
- Construct: Constructs lacking the N-terminal 144 aa; His6 (C); construct from Roger Williams lab (MRC LMB)
- Sequence (P48736 with tags, fused parts or gaps Q459R): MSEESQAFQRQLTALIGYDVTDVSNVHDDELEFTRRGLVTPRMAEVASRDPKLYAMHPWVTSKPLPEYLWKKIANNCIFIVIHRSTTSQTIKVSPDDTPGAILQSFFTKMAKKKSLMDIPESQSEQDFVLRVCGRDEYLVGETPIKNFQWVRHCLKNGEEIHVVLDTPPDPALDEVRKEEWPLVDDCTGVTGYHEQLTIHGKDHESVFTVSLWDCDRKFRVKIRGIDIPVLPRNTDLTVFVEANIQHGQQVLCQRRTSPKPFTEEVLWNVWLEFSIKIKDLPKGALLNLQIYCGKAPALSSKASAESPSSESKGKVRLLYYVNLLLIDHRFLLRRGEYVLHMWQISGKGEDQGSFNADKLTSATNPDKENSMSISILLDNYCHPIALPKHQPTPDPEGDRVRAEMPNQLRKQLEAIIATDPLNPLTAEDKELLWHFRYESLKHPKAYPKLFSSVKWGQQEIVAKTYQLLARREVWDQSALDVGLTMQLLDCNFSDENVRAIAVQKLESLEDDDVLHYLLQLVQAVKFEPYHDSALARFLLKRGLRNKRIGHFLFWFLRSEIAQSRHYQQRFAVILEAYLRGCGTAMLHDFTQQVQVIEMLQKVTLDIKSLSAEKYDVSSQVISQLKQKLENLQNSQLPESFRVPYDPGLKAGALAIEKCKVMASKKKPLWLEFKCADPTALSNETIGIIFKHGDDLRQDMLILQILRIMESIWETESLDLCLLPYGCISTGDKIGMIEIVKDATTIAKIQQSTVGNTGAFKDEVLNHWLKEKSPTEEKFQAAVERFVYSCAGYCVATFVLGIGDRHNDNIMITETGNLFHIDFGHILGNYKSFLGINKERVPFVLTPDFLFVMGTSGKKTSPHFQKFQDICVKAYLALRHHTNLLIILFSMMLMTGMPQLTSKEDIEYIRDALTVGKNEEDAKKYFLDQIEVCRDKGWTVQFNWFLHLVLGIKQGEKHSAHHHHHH
- protocol-details: PI3K KinaseGlo assay, PI3Kgamma
- assay-setup: 1 μM ATP, 150 nM enzyme, 90 mins
parameter-measured: IC50 (µM)

[
  {
    "molecule": "Cc1nc(NC(=O)N2CCC2C(N)=O)sc1-c1csc(C(C)(C)C)n1 (stereo not drawn) [Example 13]",
    "unit-of-measure": "µM",
    "value-observed": 2.51
  },
  {
    "molecule": "Cc1nc(NC(=O)N2CCC[C@@]2(C)C(N)=O)sc1-c1csc(CC2CC2)n1 [Example 49]",
    "unit-of-measure": "µM",
    "value-observed": 0.928
  },
  {
    "molecule": "Cc1nc(NC(=O)N2CCC[C@H]2C(N)=O)sc1-c1csc(N2CC3CCC(CC3)C2)n1 [Example 23]",
    "unit-of-measure": "µM",
    "value-observed": 1.64
  }
]

----------
- study-target: PI3Kdelta (Homo sapiens, UniProt O00329)
- Construct: for the full-length p110δ subunit were generated and fused by overlapping PCR; His tag (C)
- Sequence (O00329 with tags, fused parts or gaps): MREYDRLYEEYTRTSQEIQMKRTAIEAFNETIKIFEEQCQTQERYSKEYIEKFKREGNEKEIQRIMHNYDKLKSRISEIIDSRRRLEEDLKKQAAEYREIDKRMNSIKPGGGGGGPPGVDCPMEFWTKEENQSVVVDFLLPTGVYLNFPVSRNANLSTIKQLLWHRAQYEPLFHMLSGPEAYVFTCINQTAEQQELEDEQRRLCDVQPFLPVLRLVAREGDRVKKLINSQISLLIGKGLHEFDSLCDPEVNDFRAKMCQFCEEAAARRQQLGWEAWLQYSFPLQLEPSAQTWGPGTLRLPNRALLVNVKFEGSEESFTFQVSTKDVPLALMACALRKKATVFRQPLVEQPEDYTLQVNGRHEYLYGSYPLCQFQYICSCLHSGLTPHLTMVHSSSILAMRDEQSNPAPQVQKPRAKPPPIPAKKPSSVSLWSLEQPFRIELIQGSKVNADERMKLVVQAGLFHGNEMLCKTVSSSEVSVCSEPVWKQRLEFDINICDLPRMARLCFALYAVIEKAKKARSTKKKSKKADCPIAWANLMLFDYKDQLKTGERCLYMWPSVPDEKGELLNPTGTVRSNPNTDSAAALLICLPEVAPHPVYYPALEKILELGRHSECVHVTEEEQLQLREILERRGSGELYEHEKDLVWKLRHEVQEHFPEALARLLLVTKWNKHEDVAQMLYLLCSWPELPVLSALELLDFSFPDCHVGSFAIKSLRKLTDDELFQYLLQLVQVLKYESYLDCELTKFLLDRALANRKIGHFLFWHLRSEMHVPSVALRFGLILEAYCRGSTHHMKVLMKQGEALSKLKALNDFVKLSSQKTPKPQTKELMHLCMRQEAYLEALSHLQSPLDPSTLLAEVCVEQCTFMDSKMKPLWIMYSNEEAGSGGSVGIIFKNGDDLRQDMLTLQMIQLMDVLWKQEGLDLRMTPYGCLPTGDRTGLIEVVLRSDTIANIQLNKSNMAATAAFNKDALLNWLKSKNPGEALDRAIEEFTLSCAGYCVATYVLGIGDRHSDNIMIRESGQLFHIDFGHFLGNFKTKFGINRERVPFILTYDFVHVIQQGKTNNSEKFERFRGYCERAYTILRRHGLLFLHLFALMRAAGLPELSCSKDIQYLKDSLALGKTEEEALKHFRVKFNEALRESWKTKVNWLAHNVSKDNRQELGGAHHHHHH
- protocol-details: PI3K KinaseGlo assay, PI3Kdelta
- assay-setup: 1 μM ATP, 10 nM enzyme, 30 mins
parameter-measured: IC50 (µM)

[
  {
    "compound": "Cc1nc(NC(=O)N2CCC[C@@]2(C)C(N)=O)sc1-c1csc(CC2CC2)n1",
    "value-observed": 1.26
  },
  {
    "compound": "Cc1nc(NC(=O)N2CCC[C@H]2C(N)=O)sc1-c1csc(N2CC3CCC(CC3)C2)n1",
    "value-observed": 2.37
  },
  {
    "compound": "Cc1nc(NC(=O)N2CCC2C(N)=O)sc1-c1csc(C(C)(C)C)n1 (stereo not drawn)",
    "value-observed": 0.622
  }
]
